Molecular target: Ubiquitin carboxyl-terminal hydrolase 47 (Homo sapiens, UniProt Q96K76)
Sequence (Q96K76 whole entry): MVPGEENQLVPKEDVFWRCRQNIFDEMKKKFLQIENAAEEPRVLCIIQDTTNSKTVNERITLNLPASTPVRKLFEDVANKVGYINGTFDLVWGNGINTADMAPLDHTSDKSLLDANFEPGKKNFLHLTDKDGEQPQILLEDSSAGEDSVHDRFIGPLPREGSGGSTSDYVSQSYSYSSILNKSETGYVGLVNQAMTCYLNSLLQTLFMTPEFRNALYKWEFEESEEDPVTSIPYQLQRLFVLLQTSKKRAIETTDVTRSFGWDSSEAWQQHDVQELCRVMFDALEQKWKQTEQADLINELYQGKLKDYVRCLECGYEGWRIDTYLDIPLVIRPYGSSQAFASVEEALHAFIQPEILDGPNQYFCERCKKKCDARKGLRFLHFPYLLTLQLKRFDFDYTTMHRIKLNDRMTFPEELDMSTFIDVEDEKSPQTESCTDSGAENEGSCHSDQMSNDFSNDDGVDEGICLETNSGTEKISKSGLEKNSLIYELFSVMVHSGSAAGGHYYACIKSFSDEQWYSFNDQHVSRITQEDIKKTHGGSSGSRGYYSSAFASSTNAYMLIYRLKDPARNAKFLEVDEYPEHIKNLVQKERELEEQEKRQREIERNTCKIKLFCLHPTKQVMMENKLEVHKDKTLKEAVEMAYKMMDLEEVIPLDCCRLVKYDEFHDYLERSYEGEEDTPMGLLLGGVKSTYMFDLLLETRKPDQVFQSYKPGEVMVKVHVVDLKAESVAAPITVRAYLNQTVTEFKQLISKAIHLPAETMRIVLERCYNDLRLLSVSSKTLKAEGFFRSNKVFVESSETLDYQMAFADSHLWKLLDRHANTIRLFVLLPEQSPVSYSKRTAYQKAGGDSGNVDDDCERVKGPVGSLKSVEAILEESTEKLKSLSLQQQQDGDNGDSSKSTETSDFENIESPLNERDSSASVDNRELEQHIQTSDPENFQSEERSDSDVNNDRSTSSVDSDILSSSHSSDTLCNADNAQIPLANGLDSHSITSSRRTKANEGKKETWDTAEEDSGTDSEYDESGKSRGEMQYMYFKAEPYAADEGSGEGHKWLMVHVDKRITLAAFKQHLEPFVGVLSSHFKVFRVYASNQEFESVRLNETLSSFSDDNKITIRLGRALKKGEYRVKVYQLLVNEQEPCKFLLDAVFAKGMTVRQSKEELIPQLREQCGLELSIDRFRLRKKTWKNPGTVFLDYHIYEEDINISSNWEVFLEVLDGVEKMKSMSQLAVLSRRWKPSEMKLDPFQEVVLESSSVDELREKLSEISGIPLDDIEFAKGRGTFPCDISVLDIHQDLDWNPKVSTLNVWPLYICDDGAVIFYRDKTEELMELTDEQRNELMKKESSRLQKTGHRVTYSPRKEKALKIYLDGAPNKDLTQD
pIC50: −log10 of the molar value.
System: Ubiquitin carboxyl-terminal hydrolase 47 (Homo sapiens, UniProt Q96K76) | Read-out: pIC50 | Origin: multiple publications

[[record]]
compound_structure_string = "Nc1nc2c(C(F)(F)F)cccn2c1-c1ccc(O)cc1"
val = "< 4.00"


**Query** Given the compound "CO/C(O)=C(\C#N)c1nc2c(nc1C#N)C(=O)c1ccccc1-2" , what is its reported pIC50?
**Result** < 4.00

**Query** Now the same for "Nc1nc2ccc(C(F)(F)F)cn2c1-c1ccc(O)cc1"
**Result** < 4.00

**Query** Now the same for "COc1nc2c(nc1C#N)C(=O)c1ccccc1-2"
**Result** < 4.00

**Query** Now the same for "O=C([C@H]1Cc2cc(Cl)cc(-c3ccnc4cc(Cn5cnccc5=O)sc34)c2O1)N1CCNCC1"
**Result** < 5.30

----------
Target: UniProt:Q96K76
Sequence (Q96K76 whole entry): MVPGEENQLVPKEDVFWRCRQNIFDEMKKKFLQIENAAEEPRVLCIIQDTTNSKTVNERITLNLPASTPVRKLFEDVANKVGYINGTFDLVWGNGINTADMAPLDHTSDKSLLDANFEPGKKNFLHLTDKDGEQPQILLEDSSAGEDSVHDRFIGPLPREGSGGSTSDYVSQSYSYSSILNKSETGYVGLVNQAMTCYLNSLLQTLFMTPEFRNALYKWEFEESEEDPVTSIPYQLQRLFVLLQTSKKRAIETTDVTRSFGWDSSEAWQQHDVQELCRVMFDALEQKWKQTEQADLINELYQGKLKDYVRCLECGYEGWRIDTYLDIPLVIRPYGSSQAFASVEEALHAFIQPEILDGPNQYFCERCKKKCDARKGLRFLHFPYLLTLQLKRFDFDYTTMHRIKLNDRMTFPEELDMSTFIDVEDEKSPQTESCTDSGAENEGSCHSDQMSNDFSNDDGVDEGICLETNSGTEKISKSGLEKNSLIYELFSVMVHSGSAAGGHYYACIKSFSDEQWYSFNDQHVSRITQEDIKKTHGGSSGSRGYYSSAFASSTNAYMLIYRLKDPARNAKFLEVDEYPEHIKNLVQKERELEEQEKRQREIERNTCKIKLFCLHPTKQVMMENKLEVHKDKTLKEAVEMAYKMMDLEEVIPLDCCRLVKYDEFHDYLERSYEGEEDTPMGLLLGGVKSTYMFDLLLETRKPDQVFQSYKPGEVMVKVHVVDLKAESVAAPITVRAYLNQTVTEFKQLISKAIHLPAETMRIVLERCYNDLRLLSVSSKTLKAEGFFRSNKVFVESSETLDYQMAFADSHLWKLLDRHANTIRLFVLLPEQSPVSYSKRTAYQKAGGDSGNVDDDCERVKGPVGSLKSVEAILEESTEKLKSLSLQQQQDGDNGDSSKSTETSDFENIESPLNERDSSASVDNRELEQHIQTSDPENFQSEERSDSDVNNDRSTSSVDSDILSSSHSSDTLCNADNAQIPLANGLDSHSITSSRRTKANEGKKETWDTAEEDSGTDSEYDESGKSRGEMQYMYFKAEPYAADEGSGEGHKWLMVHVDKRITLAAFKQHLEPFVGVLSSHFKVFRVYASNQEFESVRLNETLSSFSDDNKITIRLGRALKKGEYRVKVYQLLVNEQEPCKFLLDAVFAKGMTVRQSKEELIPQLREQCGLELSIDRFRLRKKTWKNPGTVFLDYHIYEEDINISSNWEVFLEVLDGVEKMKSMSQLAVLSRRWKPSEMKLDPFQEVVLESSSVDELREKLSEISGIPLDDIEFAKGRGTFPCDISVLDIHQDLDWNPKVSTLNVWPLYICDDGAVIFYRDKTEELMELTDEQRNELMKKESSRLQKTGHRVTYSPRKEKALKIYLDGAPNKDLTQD
System: UniProt:Q96K76 | Read-out: IC50 | Origin: multiple publications

Example results:
[[record]]
molecule = "O=C([C@H]1Cc2cc(Cl)cc(-c3ccnc4cc(CN5C(=O)CCC5=O)sc34)c2O1)N1CCNCC1"
val = "> 2 µM"

[[record]]
molecule = "Nc1cc(-c2cc(Cl)cc3c2OC(C(=O)N2CCNCC2)C3)ccn1 (racemic)"
val = "> 80 µM"

[[record]]
molecule = "N#Cc1nc2c(nc1C#N)-c1ccc(Cl)cc1C2=O"
val = "0.4 µM"

[[record]]
molecule = "O=C([C@H]1Cc2cc(Cl)cc(-c3ccnc4[nH]ccc34)c2O1)N1CCNCC1"
val = "> 80 µM"

[[record]]
molecule = "N#Cc1nc2c(nc1C#N)-c1ccccc1C2=O"
val = "3.5 µM"


**Query** Given the molecule "Cc1ccc2nc(N)c(-c3ccc(O)cc3)n2c1" , what is its reported IC50?
**Result** > 100 µM

**Query** Now the same for "N#CNc1nc2c(nc1C#N)C(=O)c1ccccc1-2"
**Result** > 100 µM
